# Tested on: HL-60(TB) leukemia
# method_summary: NCI tumour cell line growth inhibition, 48 h
value_kind: TGI (µM)

> print(dat)
                                    molecule  value.operator  test.value
 1    C[N+](C)=c1ccc2nc3c(ccc4ccccc43)oc-2c1               =        6.32
 2                    COC1=CC(=O)C(Br)=CC1=O               =        23.6
 3  O=C(CNc1nccs1)Nn1cnc2ccc(S(=O)(=O)Nc3nccs3)cc2c1=O               >         100
 4  Oc1cc(O)c2c(c1)O[C@H](c1cc(O)c(O)c(O)c1)[C@@H](O)C2               =        45.4
 5  O=C1NCN(c2ccccc2)C12CCN(CCCC(c1ccc(F)cc1)c1ccc(F)cc1)CC2               =           4
 6  O=C1C=C2C=CC3CC2(O1)C1CCCCN31 (stereo unspecified)               =        79.2
 7  Cc1ccc(S(=O)(=O)NC(=O)NCCc2ccc(O)c(O)c2)cc1               >         100
 8    Cc1ccc(/C(O)=C/c2nc3cccnc3[nH]c2=O)cc1               >         100
 9  CC(CN(C)C)S(=O)(=O)c1ccc(-c2cnc(N)c(C(=O)Nc3ccccc3)n2)cc1 (stereo unspecified)               =          11
10      CCCCCCCN(CCCCCCC)C(=N)c1ccnc2ccccc12               =         3.7
11  c1ccc2cc(Cn3cc[n+](Cc4ccc5ccccc5c4)c3)ccc2c1               =        1.35
12  Cc1ccc2n(c1)cc(-c1ccc(/C=N/NC(=N)N/N=C/c3ccc(-c4cn5cc(C)ccc5[n+]4C)cc3)cc1)[n+]2C               >         100
13   COC(NC(N)=O)C(=O)O (stereo unspecified)               >         100
14  CC(C)(C)c1ccc(O)c(C(c2ccc([N+](=O)[O-])cc2)c2cc(C(C)(C)C)ccc2O)c1               =        3.95
15  O=C1NC(=O)C(=Cc2c3ccccc3cc3ccccc23)C(=O)N1               >         100
16  C#CCN(N=O)C(=O)NCCCCC(NC(=O)OCc1ccccc1)C(=O)OCc1ccccc1 (stereo unspecified)               >         100
17  COc1cccc(-n2ncc3c(N/N=C/c4ccc(C)cc4)ncnc32)c1               >          25
18  O=C1C(C(c2ccc([N+](=O)[O-])cc2)N2CCOCC2)=C(O)C(c2ccccc2)N1c1ccccc1 (stereo unspecified)               >          10
19  CC1(C)Oc2ccc3c(=O)cc(-c4cccs4)oc3c2C1C(=O)O (stereo unspecified)               >         100
20  Cc1cc(C(=O)Nc2cc(Oc3ccc4nc(NC(=O)C5CC5)cn4n3)ccc2C)n(C)n1               >          10
21  Nc1nc2c(c(-c3ccccc3Cl)n1)COC/C2=C\c1ccccc1Cl               =        25.5

====

# Lookup of reported TGI keyed by entry
# System: SN12C renal
# method_summary: NCI tumour cell line growth inhibition, 48 h
Where a SMILES comes first, the peptide text is derived from it. The star is where a group is joined. Boc = CC(C)(C)OC(=O)*
value_kind: TGI

molecule	value_kind	test_value
COc1ccc2c3c(c(C(=O)O)oc13)CCC2	TGI	> 100 µM
CSCCC(NC(=O)C(CC(C)C)NC(=O)C1CCCN1C(=O)C(Cc1ccccc1)NC(=O)C(Cc1ccccc1)NC(=O)C(CCC(=O)O)NC(=O)OC(C)(C)C)C(N)=O (configuration not stated) (Boc-EFFPLM-NH2; configuration not given here)	TGI	> 100 µM
O=C1CSC(c2ccc(-c3nc4ccccc4[nH]3)cc2)=N1	TGI	> 50 µM
C=CC(C)(C)C1(CC(OC)OC)C(=O)N(C)c2ccccc21 (configuration not stated)	TGI	> 25 µM
CCOc1cc(C(=O)O)c2c(ccc3ccc(OC)c(OC)c32)c1OC	TGI	> 100 µM
CCOP(=O)(OCC)/C(C#N)=C\c1ccsc1	TGI	> 100 µM
COC(=O)[C@@H]1[C@H](O)CCC2=C(CC(=O)c3ccoc3)[C@H](C)CC[C@]21C	TGI	> 50 µM
COC(NC(N)=O)C(=O)O (configuration not stated)	TGI	> 100 µM
NCCOCn1cc(Cc2cccc(OCc3ccccc3)c2)c(=O)[nH]c1=O	TGI	> 100 µM
C=C1C2C[C@@H]3OC4CC5O[C@]6(CC5OC4C(C)C3OC(=O)CC3CC[C@@H]4OC5C7OC8C[C@](CCC9CC(=C)[C@H](CCC(C[C@H]1C)O2)O9)(OC7C4O3)O[C@@H]85)C[C@@H]1O[C@@]2(CC(C)[C@@H]3OC(CC(=O)CCO)C(O)C[C@@H]3O2)CC(C)[C@@H]1O6 (some centres not stated)	TGI	0.206 µM
C[C@]12C(=O)C=CCC1=CC[C@@H]1[C@@H]2[C@H]2CC3(O)C(=O)O[C@@]4(C)[C@H]5C[C@@]6(C)[C@@H]7[C@@]2(O)[C@]1(OC[C@H]6C(=O)O5)O[C@]734 (some centres not stated)	TGI	> 100 µM
COc1ccc(C(C#N)=C2C=CC(=NO)C=C2)cc1	TGI	27.6 µM
CCCCC[C@H]1CC=C2C(=O)C=C[C@@H]2CC=CCCCC(=O)O[C@@H](CCCCC)CC=C2C(=O)C=C[C@@H]2CC=CCCCC(=O)O[C@@H](CCCCC)CC=C2C(=O)C=C[C@@H]2CC=CCCCC(=O)O1	TGI	> 8.75 µM
CC(C)NCC(O)c1ccc(O)c2ncccc12 (configuration not stated)	TGI	> 100 µM
c1ccc2cc(Cn3cc[n+](Cc4ccc5ccccc5c4)c3)ccc2c1	TGI	7.03 µM
CCCCCCCCCCCC[N+](C)(C)Cc1ccccc1	TGI	5.12 µM
CCC[CH2][Sn]([CH2]CCC)([CH2]CCC)[O]C(=O)C(OC(C)=O)c1ccccc1 (configuration not stated)	TGI	0.275 µM

====

# System: BT-549 breast
# method_summary: NCI tumour cell line growth inhibition, 48 h

compound	value_operator	TGI, nM
CC(=O)O[C@@]12CO[C@@H]1C[C@H](O)[C@@]1(C)C(=O)[C@H](O)C3=C(C)[C@@H](OC(=O)[C@H](O)[C@@H](NC(=O)OC(C)(C)C)c4ccccc4)C[C@@](O)([C@@H](OC(=O)c4ccccc4)C12)C3(C)C (some centres undefined)	=	33.8
Cc1cc2c(cc1C)[n+](=O)c(C(=O)/C=C/c1ccc3c(c1)OCO3)c(C)n2[O-]	>	100000
COc1cc(OCc2nc3cc(C(F)(F)F)ccc3nc2-c2ccccc2)cc(OC)c1OC	>	100000
O=c1cc(-c2ccccc2)oc2ccc(OC/C(=N/O)c3ccc(F)cc3)cc12	=	2670

====

# System: CAKI-1 renal
# method_summary: NCI tumour cell line growth inhibition, 48 h
Where a SMILES comes first, the peptide text is derived from it. The star is where a group is joined. Boc = CC(C)(C)OC(=O)*
# Lookup of reported TGI keyed by entry

compound	unit_text	value_operator	TGI
COc1cccc(-n2ncc3c(N/N=C/c4ccc(C)cc4)ncnc32)c1	µM	>	25
COC1=CC(=O)C(Br)=CC1=O	µM	=	32.4
COC(=O)c1ccccc1NC(=S)NN(C)C	µM	>	100
N#CCCN(CCC#N)c1ccc(/C=C2\SC(=S)NC2=O)cc1	µM	=	59.7
COc1cccc(OC(=O)c2ccc(C(F)(F)F)nc2Nc2c(C)cccc2Cl)c1	µM	=	48.8
C/C(=N/NC(=S)Nc1cccc(Cl)c1)c1ccccn1	µM	=	11.8
Cc1cc(C(=O)Nc2cc(Oc3ccc4nc(NC(=O)C5CC5)cn4n3)ccc2C)n(C)n1	µM	>	10
Cn1cnc([N+](=O)[O-])c1Sc1nnnn1C	µM	=	31.8
CCN(CCCl)CCCCCNc1c2ccccc2nc2ccc(OC)cc12	µM	=	16.7
Cc1ccc(S(=O)(=O)/N=C2/N(C)CCCS2(=O)=O)cc1	µM	>	100
CN(C)CCNC(=O)c1cccc2nc3ccc4cccnc4c3nc12	µM	=	6.37
CC(C)NCC(O)c1ccc(O)c2ncccc12 (stereo unspecified)	µM	>	100
O=C(N/N=C\c1cccs1)c1ccncc1	µM	>	100
COC1=CC(=O)c2c(cc(COP(N)(=O)N(CCCl)CCCl)n2C)C1=O (stereo unspecified)	µM	<	0.0478
CCOc1cc(C(=O)O)c2c(ccc3ccc(OC)c(OC)c32)c1OC	µM	>	100
Cc1cc(Br)cc(C)c1NC(=O)C(=O)C(C(=O)c1ccncc1)C1OC(=O)c2ccccc21 (stereo unspecified)	µM	>	100
COc1ccc(C2S/C(=C\c3cccc(OC)c3)C(=O)N2NC(=O)Cc2ccccc2)cc1 (stereo unspecified)	µM	>	100
C[C@]12CC[C@@H]3c4ccc(O)cc4CC[C@H]3[C@@H]1CC[C@@H]2NS(=O)(=O)c1cccc(Cl)c1	µM	=	10.6
CCCCCCCCCC(O)CC(=O)c1c(O)cccc1O (stereo unspecified)	µM	=	44
CC(=O)NNc1nc(C)c(C(/C=C/c2ccc([N+](=O)[O-])cc2)=N/NC(N)=O)s1	µM	>	100
CSCCC(NC(=O)C(CC(C)C)NC(=O)C1CCCN1C(=O)C(Cc1ccccc1)NC(=O)C(Cc1ccccc1)NC(=O)C(CCC(=O)O)NC(=O)OC(C)(C)C)C(N)=O (stereo unspecified) (Boc-EFFPLM-NH2; configuration not given here)	µM	>	100
